Documented Potency across a set of compounds
STUDY_SYSTEM: D(2) dopamine receptor (Homo sapiens)
PROTOCOL_DESCRIPTION: Dopamine D2 receptor (DRD2) small molecule agonists, cell-based qHTS assay (AID 1963594); note: potency is the fitted concentration of half-maximal effect; nearly all actives have a fitted effect of over 35% in size
MEASUREMENT_SETUP: HEK293-DRD2 cAMP HTRF, agonist mode, 30 min; series mostly up to 92.4 µM
Inconclusive results are not listed. The source made the active and inactive calls. Calls come from the whole dose curve.
ASSAY_ENDPOINT: Potency

>>> reported("CCN1CCc2nc(N)oc2CC1")
"26.6 µM (active)"
>>> reported("O=C1NC(=O)[C@@]2(CCOc3ccc(F)cc32)N1")
"0.11 µM (active)"
>>> reported("O=c1[nH]c2cc(C(F)(F)F)c(N3CCOCC3)cc2n(CP(=O)(O)O)c1=O")
"29.8 µM (active)"
>>> reported("CCCCCCCCCCCCI")
"54.7 µM (active)"
